System: 1b_Huh-Luc/Neo-ET cell line (bicistronic genotype 1b replicon in Huh 7 cells)
method: HCV 1b replicon assay, luciferase readout
Assay type: cell-based, HCV genotype 1b
conditions: Hepatitis C virus, Huh-7, class symbol; HCV genotype 1b replicon; read-out: Inhibition of HCV genotype 1b replicon
pEC50: −log10 of the molar value.
Reported pEC50 values for the following compounds.

Task: Give the measured pEC50 of CNC(=O)c1c(-c2ccc(F)cc2)oc2cc3c(cc12)[C@@H](C)OC1(CC1)CN3S(C)(=O)=O (single isomer, unassigned) .
Result: 6.00 to 7.00

Task: Dear colleague, I am looking for the recorded pEC50 of the following compound: CNC(=O)c1c(-c2ccc(F)cc2)oc2cc3c(cc12)CCCCN3C(=O)OC
Result: 6.00 to 7.00

Task: Fill in the blank: the reported pEC50 of CNC(=O)c1c(-c2ccc(F)cc2)oc2cc3c(cc12)C(C)N(C1CC1)CCN3S(C)(=O)=O (stereo not drawn) is ____.
Result: 7.00 to 8.00

Task: // returns reported pEC50 for input CC1OCCN(S(C)(=O)=O)c2cc3oc(-c4ccc(Oc5ccc(F)cc5)cc4)c(-c4ncc[nH]4)c3cc21 (stereo not drawn)
Result: 7.00 to 8.00

Task: Record request: pEC50 value, item CNC(=O)c1c(-c2ccc(F)cc2)oc2cc3c(cc12)[C@H](C)O[C@@H](CCS(C)(=O)=O)CN3S(C)(=O)=O
Result: 7.00 to 8.00

Task: Give its pEC50 value. Item: CNC(=O)c1c(-c2ccc(F)cc2F)oc2cc3c(cc12)C(=O)CCCN3S(C)(=O)=O
Result: 6.00 to 7.00
